Values from patent US20160264681A1

Molecular target: T1, GDF11 (UniProt O95390 299-407)
T1 sequence (looked up): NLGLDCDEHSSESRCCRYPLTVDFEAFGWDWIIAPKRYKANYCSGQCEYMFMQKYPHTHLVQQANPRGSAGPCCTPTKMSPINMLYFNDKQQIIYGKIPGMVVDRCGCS
Assay: cell-based or functional assay
READOUT_TYPE: IC50 (ng/mL), reporter gene assay, conditioned media
Respond with the bare value in ng/mL.

Any idea what IC50 (ng/mL), reporter gene assay, conditioned media was measured for ActRIIb-hFc (R64, 23-131) (Fc fusion) EAETRECIYYNANWELERTNQSGLERCEGEQDKRLHCYASWRNSSGTIELVKKGCWLDDFNCYDRQECVATEENPQVYFCCCEGNFCNERFTHLPEAGGPEVTYEPPPTGGGTHTCPPCPAPELLGGPSVFLFPPKPKDTLMISRTPEVTCVVVDVSHEDPEVKFNWYVDGVEVHNAKTKPREEQYNSTYRVVSVLTVLHQDWLNGKEYKCKVSNKALPVPIEKTISKAKGQPREPQVYTLPPSREEMTKNQVSLTCLVKGFYPSDIAVEWESNGQPENNYKTTPPVLDSDGSFFLYSKLTVDKSRWQQGNVFSCSVMHEALHNHYTQKSLSLSPGK ?
60

Would you kindly share the measured IC50 (ng/mL), reporter gene assay, conditioned media for ActRIIb-hFc (R64, 24-131) (Fc fusion) AETRECIYYNANWELERTNQSGLERCEGEQDKRLHCYASWRNSSGTIELVKKGCWLDDFNCYDRQECVATEENPQVYFCCCEGNFCNERFTHLPEAGGPEVTYEPPPTGGGTHTCPPCPAPELLGGPSVFLFPPKPKDTLMISRTPEVTCVVVDVSHEDPEVKFNWYVDGVEVHNAKTKPREEQYNSTYRVVSVLTVLHQDWLNGKEYKCKVSNKALPVPIEKTISKAKGQPREPQVYTLPPSREEMTKNQVSLTCLVKGFYPSDIAVEWESNGQPENNYKTTPPVLDSDGSFFLYSKLTVDKSRWQQGNVFSCSVMHEALHNHYTQKSLSLSPGK ?
69

If you can, please state the reported IC50 (ng/mL), reporter gene assay, conditioned media value of ActRIIb-hFc (R64, 22-131) (Fc fusion) GEAETRECIYYNANWELERTNQSGLERCEGEQDKRLHCYASWRNSSGTIELVKKGCWLDDFNCYDRQECVATEENPQVYFCCCEGNFCNERFTHLPEAGGPEVTYEPPPTGGGTHTCPPCPAPELLGGPSVFLFPPKPKDTLMISRTPEVTCVVVDVSHEDPEVKFNWYVDGVEVHNAKTKPREEQYNSTYRVVSVLTVLHQDWLNGKEYKCKVSNKALPVPIEKTISKAKGQPREPQVYTLPPSREEMTKNQVSLTCLVKGFYPSDIAVEWESNGQPENNYKTTPPVLDSDGSFFLYSKLTVDKSRWQQGNVFSCSVMHEALHNHYTQKSLSLSPGK .
71

So what's the measured IC50 (ng/mL), reporter gene assay, conditioned media for this one? ActRIIb-hFc (R64, 21-131) (Fc fusion) RGEAETRECIYYNANWELERTNQSGLERCEGEQDKRLHCYASWRNSSGTIELVKKGCWLDDFNCYDRQECVATEENPQVYFCCCEGNFCNERFTHLPEAGGPEVTYEPPPTGGGTHTCPPCPAPELLGGPSVFLFPPKPKDTLMISRTPEVTCVVVDVSHEDPEVKFNWYVDGVEVHNAKTKPREEQYNSTYRVVSVLTVLHQDWLNGKEYKCKVSNKALPVPIEKTISKAKGQPREPQVYTLPPSREEMTKNQVSLTCLVKGFYPSDIAVEWESNGQPENNYKTTPPVLDSDGSFFLYSKLTVDKSRWQQGNVFSCSVMHEALHNHYTQKSLSLSPGK
121
